# System: RXF 393 renal
# assay text: NCI tumour cell line growth inhibition, 48 h; in the data active means GI50 below about 0.43 µM; inactive means the rest
Possible outcomes: active, inactive

>>> label_value("COc1ccc2c(c1)OC1=C(C(=O)OC1)C2c1cc(OC)c(OC)c(OC)c1 (stereo not given)")
"active"
>>> label_value("CCOc1ccc(Nc2nc(-c3ccc4c(c3)NC(=O)CO4)cs2)cc1")
"inactive"
>>> label_value("c1cc(OCCN2CCCCC2)ccc1CNc1ccc2nc(CCC3CCCCC3)[nH]c2c1")
"inactive"
>>> label_value("CC1(C)CC(n2cnc(-c3ccc(F)cc3)c2-c2ccnc(N)n2)CC(C)(C)N1")
"inactive"
>>> label_value("O=C(CC12CC3CC(CC(C3)C1)C2)NCCOCCOCCOCCNC(=O)c1cc2c(o1)C(=O)c1ccccc1C2=O")
"inactive"
>>> label_value("NC(=O)c1ccc2c(-c3ccnc(NCCCO)n3)c(-c3ccc(F)cc3)nn2c1")
"inactive"
>>> label_value("Cc1ccc(-c2nc(N)nc3c2nnn3Cc2cccc(CO[C@H]3CCOC3)n2)o1")
"inactive"
>>> label_value("C[C@@H]1N=C(c2ccc(Br)cc2)Nc2nc3ccccn3c2C1=O")
"inactive"
>>> label_value("COc1cccc(-c2nc3sccn3c2-c2ccnc(NCCNS(=O)(=O)c3ccccc3)c2)c1")
"inactive"
>>> label_value("CC/C(=C(/CC)c1ccc(O)cc1)c1ccc([O-])cc1.CC/C(=C(/CC)c1ccc(O)cc1)c1ccc([O-])cc1.O=C([CH-]C(=O)c1ccccc1)c1ccccc1.O=C([CH-]C(=O)c1ccccc1)c1ccccc1.[Ti+4]")
"inactive"
